Source listed as patent US9458141B2.

Consider the following compounds; for each one, report its AC50.
# target system: human TSHR (Homo sapiens)
# Construct: expressed in transfected cells
# Sequence (P16473 21-764): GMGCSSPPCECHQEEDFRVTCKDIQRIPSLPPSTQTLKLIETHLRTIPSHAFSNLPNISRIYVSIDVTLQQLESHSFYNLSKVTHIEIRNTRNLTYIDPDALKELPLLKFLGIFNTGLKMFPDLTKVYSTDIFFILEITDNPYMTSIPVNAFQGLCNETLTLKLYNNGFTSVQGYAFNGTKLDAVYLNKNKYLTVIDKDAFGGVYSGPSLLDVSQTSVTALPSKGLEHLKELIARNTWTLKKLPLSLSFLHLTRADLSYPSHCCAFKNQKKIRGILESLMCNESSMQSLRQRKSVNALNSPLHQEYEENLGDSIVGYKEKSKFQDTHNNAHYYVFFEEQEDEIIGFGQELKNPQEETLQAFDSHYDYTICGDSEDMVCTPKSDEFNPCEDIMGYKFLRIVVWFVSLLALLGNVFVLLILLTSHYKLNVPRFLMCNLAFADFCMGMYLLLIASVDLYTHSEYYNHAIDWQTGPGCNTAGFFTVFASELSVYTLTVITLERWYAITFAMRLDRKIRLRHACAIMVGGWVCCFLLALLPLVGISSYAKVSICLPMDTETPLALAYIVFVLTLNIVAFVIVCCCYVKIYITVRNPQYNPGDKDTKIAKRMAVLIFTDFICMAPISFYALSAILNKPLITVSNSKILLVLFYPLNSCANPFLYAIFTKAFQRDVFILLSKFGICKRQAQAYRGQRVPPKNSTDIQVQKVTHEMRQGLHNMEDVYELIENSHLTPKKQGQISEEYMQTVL
# run description: Homogeneous Time Resolved Fluorescence (HTRF) cAMP assay, TSHR cell line
# Assay type: cell-based
# study conditions: HTRF cAMP, TSHR cell line, 30 minute incubation; read-out: AC50
Kindly report the value followed by its unit.

Suppose we examine the compound COc1ccc(CN(Cc2ccccc2)C(=O)c2ccco2)cc1COc1ccc(NC(C)=O)cc1 [Structure 41] ; what AC50 value has been reported?
15.8 µM

Ok, now COc1ccc(C2Nc3ccccc3C(=O)N2Cc2ccco2)cc1COc1ccc(NC(C)=O)cc1 (stereo not shown) [Structure 59]
17.8 µM

Ok, now COc1ccc(CN(Cc2ccccc2)C(=O)C2CC2)cc1COc1ccc(NC(C)=O)cc1 [Structure 68]
22.4 µM

Ok, now COc1ccc(CN(Cc2ccccc2)C(=O)c2ccccc2)cc1COc1ccc(NC(C)=O)cc1 [Structure 5]
15.8 µM

Ok, now COc1ccc(C(=O)N(Cc2ccccc2)Cc2ccccc2)c(O)c1 [Structure 131]
35.5 µM

Ok, now COc1ccc(C2Nc3ccccc3C(=O)N2Cc2ccccc2OC)cc1COc1ccc(NC(C)=O)cc1 (stereo not shown) [Structure 279]
4.47 µM

Ok, now COc1ccc(C2Nc3ccccc3C(=O)N2Cc2ccccc2)cc1CSc1ccc(NC(C)=O)cc1 (stereo not shown) [Structure 22]
7.94 µM

Ok, now O=C(c1ccccc1O)N(Cc1ccccc1)Cc1cccs1 [Structure 287]
22.4 µM

Ok, now COc1ccc(CN(Cc2ccccc2)C(=O)c2ccc(O)cc2)cc1COc1ccc(NC(C)=O)cc1 [Structure 104]
39.8 µM

Ok, now COc1ccc(C2Nc3ccccc3C(=O)N2C2CCCC2)cc1COc1ccc(NC(C)=O)cc1 (stereo not shown) [Structure 138]
20 µM

Ok, now COc1ccc(C2Nc3ccccc3C(=O)N2Cc2ccccc2)cc1COc1ccccc1OC (stereo not shown)
8.91 µM

Ok, now COc1ccc(C2Nc3ccccc3C(=O)N2Cc2cccnc2)cc1COc1ccc(NC(C)=O)cc1 (stereo not shown) [Structure 99]
35.5 µM

Ok, now COc1ccc(CN(Cc2ccccc2)C(=O)c2ccccc2)cc1COc1ccc(NC(C)=O)cc1 [Structure 57]
14.1 µM

Ok, now COc1ccc(CN(Cc2ccccc2)C(=O)c2ccccc2)cc1COc1ccc(NC(C)=O)cc1 [Structure 31]
11.2 µM

Ok, now COc1ccc(CN(Cc2ccccc2)C(=O)c2ccccc2)cc1COc1ccc(NC(C)=O)cc1 [Structure 40]
11.2 µM

Ok, now COc1ccc(CN(Cc2ccccc2)C(=O)c2ccccc2N)cc1COc1ccc(NC(C)=O)cc1 [Structure 100]
35.5 µM
